- target or test system: T1, Peptide-biotin
- T1 construct: also called antigen
- T1 sequence (Q8TD43 other isoform, or with tags, fused parts or gaps): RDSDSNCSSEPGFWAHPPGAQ
- assay name: SPR Biacore 8K affinity ranking; antibody Fc-captured, Peptide-biotin analyte, 1:1 fit
- Procedure: For affinity ranking, antibodies were captured on the sensor chip through Fc capture method. Peptide-biotin was used as the analyte. The surface was regenerated before the injection of another antibody. The process was repeated until all antibodies are analyzed. The off-rates of antibodies were obtained from fitting the experimental data locally to 1:1 interaction model using the Biacore 8K evaluation software. The antibodies were ranked by their dissociation rate constants (off-rates, kd). […]
Provide the reported pKd of each item.
// pKd is dimensionless: -log10 of concentration (M)

Specify reported pKd for the binder shown: humanized anti-TRPM4 antibody VH4 + VL3 (antibody, V domains shown, Full-length IgG) VH: QVQLQESGPGLVKPSQTLSLTCTVSGYSITSDYAWNWIRQHPGKGLQWMGYLSYSGVTSYNPSLKGRITISRDTSKNQFFLKLSSVTAADTAVYYCARKGTYYRYEGSYWYFDVWGQGTTVTVSS VL: DIQMTQSPSSLSASVGDRVTITCHANQNIDVWLSWYQQKPGNAPKLLIYKTSNLHTGVPSRFSGSGSGTDFTFTISSLQPEDIATYYCQQGQSYPLTFGGGTKLEIKR 8.36

Specify reported pKd for the binder shown: humanized anti-TRPM4 antibody clone A4 (VH1 + VL3) (antibody, V domains shown, Full-length IgG, IgG1 heavy chain; also called VH1 + VL3 (A4)) VH: QVQLQESGPGLVKPSQTLSLTCTVSGYSITSDYAWNWIRQHPGKGLEWIGYLSYSGVTSYNPSLKGRVTISVDTSKNQFSLKLSSVTAADTAVYYCARKGTYYRYEGSYWYFDVWGQGTTVTVSS VL: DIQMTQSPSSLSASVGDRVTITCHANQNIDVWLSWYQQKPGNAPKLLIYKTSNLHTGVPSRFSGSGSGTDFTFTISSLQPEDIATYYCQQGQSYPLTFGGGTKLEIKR 8.15

Specify reported pKd for the binder shown: humanized anti-TRPM4 antibody clone A3 (VH1 + VL2) (antibody, V domains shown, Full-length IgG, IgG1 heavy chain; also called VH1 + VL2 (A3)) VH: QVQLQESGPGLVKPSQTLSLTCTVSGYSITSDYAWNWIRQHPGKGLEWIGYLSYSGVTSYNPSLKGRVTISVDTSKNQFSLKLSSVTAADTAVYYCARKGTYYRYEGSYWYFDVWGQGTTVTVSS VL: DIQMTQSPSSLSASVGDRVTITCHANQNIDVWLSWYQQKPGKAPKLLIYKTSNLHTGVPSRFSGSGSGTDFTLTISSLQPEDIATYYCQQGQSYPLTFGGGTKLEIKR 8.01

Specify reported pKd for the binder shown: humanized anti-TRPM4 antibody clone A6 (VH2 + VL1) (antibody, V domains shown, Full-length IgG, IgG1 heavy chain; also called VH2 + VL1 (A6)) VH: QVQLQESGPGLVKPSQTLSLTCTVSGYSITSDYAWNWIRQHPGKGLEWMGYLSYSGVTSYNPSLKGRVTISRDTSKNQFSLKLSSVTAADTAVYYCARKGTYYRYEGSYWYFDVWGQGTTVTVSS VL: DIQMTQSPSSLSASVGDRVTITCHANQNIDVWLSWYQQKPGKAPKLLIYKTSNLHTGVPSRFSGSGSGTDFTFTISSLQPEDIATYYCQQGQSYPLTFGGGTKLEIKR 7.97
